Where do these numbers come from? They come from patent US20240294551A1.

Target: His-tagged KRAS G12D protein (Homo sapiens (Human), UniProt P01116, G12D)
Sequence (P01116 other isoform, or with tags, fused parts or gaps G12D): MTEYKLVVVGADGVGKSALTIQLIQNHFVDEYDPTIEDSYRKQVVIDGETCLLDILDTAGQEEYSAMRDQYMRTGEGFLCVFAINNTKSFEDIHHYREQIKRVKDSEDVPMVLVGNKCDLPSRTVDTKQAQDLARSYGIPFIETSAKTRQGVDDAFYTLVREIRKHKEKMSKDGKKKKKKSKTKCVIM
Assay: KRAS G12D TR-FRET Assay
Format: binding
Settings: read-out: KRAS G12D Binding IC50
# reported IC50; entries follow

Compound	System under test	IC50 (nM)
C[C@@]12CCCN(C1)c1nc(OC[C@@]34CCCN3C[C@H](F)C4)nc3c(F)c(ncc13)-c1cccc3c1N(CCCC(=O)N2)CCC3 [Example 13, bis(2,2,2-trifluoroacetate)]	His-tagged KRAS G12D protein (Homo sapiens (Human), UniProt P01116, G12D)	238
O=C1N[C@@H]2CCCCN(C2)c2nc(OC[C@@]34CCCN3C[C@H](F)C4)nc3c(F)c(ncc23)-c2c(c(Cl)cc3[nH]ncc23)CCCC1F (mixture of isomers)	His-tagged KRAS G12D protein (Homo sapiens (Human), UniProt P01116, G12D)	6
CN1C(=O)CCCc2c(F)ccc3cccc(c23)-c2ncc3c(nc(OC[C@@]45CCCN4C[C@H](F)C5)nc3c2F)N2CCC[C@]1(C)C2	His-tagged KRAS G12D protein (Homo sapiens (Human), UniProt P01116, G12D)	44
Cc1cc2[nH]ncc2c2c1CCCOC(=O)CC1CCCN(C1)c1nc(OC[C@@]34CCCN3C[C@H](F)C4)nc3c(F)c-2ncc13 (some centres unmarked)	His-tagged KRAS G12D protein (Homo sapiens (Human), UniProt P01116, G12D)	12
Cc1cc2[nH]ncc2c2c1CCCC(F)C(=O)N[C@@H]1CCCCN(C1)c1nc(OC[C@@]34CCCN3C[C@H](F)C4)nc3c(F)c-2ncc13 (single isomer, unassigned) [Example 159]	His-tagged KRAS G12D protein (Homo sapiens (Human), UniProt P01116, G12D)	6

----------
Target: GDP-bound KRAS protein (aa 1-169), containing both G12D and C118A amino acid substitutions (Homo sapiens (Human), UniProt P01116, C118A/G12D)
Sequence (P01116 other isoform, or with tags, fused parts or gaps G12D/C118A): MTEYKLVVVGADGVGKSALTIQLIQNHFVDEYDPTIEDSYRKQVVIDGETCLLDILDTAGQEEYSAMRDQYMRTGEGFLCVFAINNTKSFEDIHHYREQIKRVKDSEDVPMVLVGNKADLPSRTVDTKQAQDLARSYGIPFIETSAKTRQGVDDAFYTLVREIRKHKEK
Assay: KRAS G12D Coupled Nucleotide Exchange Assay
Format: biochemical
Settings: read-out: KRAS G12D Coupled Exchange IC50
Endpoint name: IC50

Compound	Endpoint name	Recorded result
Cc1cc2[nH]ncc2c2c1CCC[C@H](F)C(=O)N[C@@H]1CCCN(C1)c1nc(OC[C@@]34CCCN3C[C@H](F)C4)nc3c(F)c-2ncc13 (mixture of isomers)	IC50	5 nM
Cc1cc2[nH]ncc2c2c1CCCOC(=O)O[C@@]1(C)COCCN(C1)c1nc(OC[C@@H]3CCCN3C)nc3c(F)c-2ncc13	IC50	3620 nM
CN1[C@H](COc2nc3c4cnc(c(F)c4n2)-c2c(c(Cl)cc4[nH]ncc24)CCCOC(=O)O[C@@H]2COCCN3C2)C[C@H]2C[C@H]21	IC50	7 nM
CN1C[C@H](F)C[C@H]1COc1nc2c3cnc(c(F)c3n1)-c1cc(O)cc3ccc(F)c(c13)CCCC(=O)N[C@]1(C)CCCN2C1 [Example 5, bis(2,2,2-trifluoroacetate)]	IC50	1 nM
Cc1cc2[nH]ncc2c2c1CCCCC(=O)N1CC[C@@H]3CCN(C[C@@H]31)c1nc(OC[C@@]34CCCN3C[C@H](F)C4)nc3c(F)c-2ncc13 (mixture of isomers)	IC50	2 nM
O=C1OCCCc2c(Cl)cc3[nH]ncc3c2-c2ncc3c(nc(OC[C@@]45CCCN4C[C@H](F)C5)nc3c2F)N2CCOC[C@]3(C2)C[C@@H](C3)O1	IC50	2 nM
O=C1OCCCCc2c(Cl)cc3[nH]ncc3c2-c2ncc3c(nc(OC[C@@]45CCCN4C[C@H](F)C5)nc3c2F)N2CCOC[C@H](C2)O1	IC50	42 nM
Cc1cc2[nH]ncc2c2c1[C@@H]1C[C@@H]1CCOC[C@H]1CN(CCO1)c1nc(OC[C@@]34CCCN3C[C@H](F)C4)nc3c(F)c-2ncc13 (single isomer, unassigned)	IC50	4770 nM
O=C1CCCCc2c(Cl)cc3[nH]ncc3c2-c2ncc3c(nc(OC[C@@]45CCCN4C[C@H](F)C5)nc3c2F)N2CCOC[C@H](C2)O1	IC50	1 nM
O=C1CCCc2c(Cl)cc3[nH]ncc3c2-c2ncc3c(nc(OC[C@@]45CCCN4C[C@H](F)C5)nc3c2F)N2CCCC3(CC(C3)N1)C2	IC50	16 nM
O=C1CCCCc2c(Cl)cc3[nH]ncc3c2-c2ncc3c(nc(OC[C@@]45CCCN4C[C@H](F)C5)nc3c2F)N2CCC[C@]3(C2)C[C@H](C3)N1	IC50	2 nM
O=C1CCCCc2c(Cl)cccc2-c2ncc3c(nc(OC[C@@]45CCCN4C[C@H](F)C5)nc3c2F)N2CCC[C@H](C2)N1	IC50	481 nM
O=C1OCCCc2c(Cl)cc3[nH]ncc3c2-c2c(F)cc3c(nc(OC[C@@]45CCCN4C[C@H](F)C5)nc3c2F)N2CCOC[C@H](C2)O1 [Example 188]	IC50	44 nM
O=C1OCCc2c(Cl)cc3[nH]ncc3c2-c2ncc3c(nc(OC[C@@]45CCCN4C[C@H](F)C5)nc3c2F)N2CCOC[C@]3(C2)C[C@@H](C3)O1	IC50	35 nM
O=C1OCCCc2c(Cl)cc3[nH]ncc3c2-c2ncc3c(nc(OC[C@@]45CCCN4C[C@H](F)C5)nc3c2F)N2CCOC[C@](CF)(C2)O1	IC50	3 nM
Cc1cc2[nH]ncc2c2c1CCCOC(=O)O[C@]1(C)COCCN(C1)c1nc(OC[C@@H]3CCCN3C)nc3c(F)c-2ncc13	IC50	4 nM
O=C1OCCCc2c(F)cc3[nH]ncc3c2-c2ncc3c(nc(OC[C@@]45CCCN4C[C@H](F)C5)nc3c2F)N2CCC[C@H](C2)O1	IC50	3 nM
Cc1cc2[nH]ncc2c2c1CCOC(=O)OC[C@H]1CN(CCO1)c1nc(OC[C@@]34CCCN3C[C@H](F)C4)nc3c(F)c-2ncc13	IC50	3 nM
O=C1OC[C@H]2C[C@H]2c2c(Cl)cc3[nH]ncc3c2-c2ncc3c(nc(OC[C@@]45CCCN4C[C@H](F)C5)nc3c2F)N2CCC[C@H](C2)O1 [Example 46, bis(2,2,2-trifluoroacetate)]	IC50	10 nM
O=C1OCCCc2c(Cl)cc3[nH]ncc3c2-c2ccc3c(nc(OC[C@@]45CCCN4C[C@H](F)C5)nc3c2F)N2CCOC[C@H](C2)O1	IC50	2 nM
O=C1OC/C=C/c2c(Cl)cc3[nH]ncc3c2-c2ncc3c(nc(OC[C@@]45CCCN4C[C@H](F)C5)nc3c2F)N2CCC[C@H](C2)O1 (single isomer, unassigned)	IC50	12 nM
Cc1nc2c3cnc(c(F)c3n1)-c1c(c(C)cc3[nH]ncc13)[C@H]1C[C@H]1COC(=O)O[C@@H]1CCCN2C1	IC50	268 nM
